tested on: Mycobacterium tuberculosis; assay: Antitubercular activity against Mycobacterium tuberculosis H37Rv assessed as inhibition of colonies after 30 days by agar microdilution method; type: functional

[
  {
    "Compound": "O=C1C(Cl)C(c2ccc([N+](=O)[O-])cc2)N1/N=C/CCn1nnc2ccccc21 (stereo unspecified)",
    "MIC": "> 1.56 µg/mL"
  },
  {
    "Compound": "CC[C@@H](CO)NCCN[C@@H](CC)CO",
    "MIC": "1 µg/mL"
  },
  {
    "Compound": "O=C1C(Cl)C(c2ccccc2[N+](=O)[O-])N1/N=C/CCn1nnc2ccccc21 (stereo unspecified)",
    "MIC": "> 3.12 µg/mL"
  },
  {
    "Compound": "O=C1C(Cl)C(c2ccccc2)N1/N=C/CCn1nnc2ccccc21 (stereo unspecified)",
    "MIC": "> 12.5 µg/mL"
  },
  {
    "Compound": "O=C1C(Cl)C(c2ccccc2Cl)N1/N=C/CCn1nnc2ccccc21 (stereo unspecified)",
    "MIC": "3.12 µg/mL"
  },
  {
    "Compound": "O=C1C(Cl)C(c2ccc(Cl)cc2)N1/N=C/CCn1nnc2ccccc21 (stereo unspecified)",
    "MIC": "> 3.12 µg/mL"
  },
  {
    "Compound": "O=C1C(Cl)C(c2cccc(Br)c2)N1/N=C/CCn1nnc2ccccc21 (stereo unspecified)",
    "MIC": "6.25 µg/mL"
  },
  {
    "Compound": "CN[C@@H]1[C@H](O[C@H]2[C@H](O[C@H]3[C@H](O)[C@@H](O)[C@H](N=C(N)N)[C@@H](O)[C@@H]3N=C(N)N)O[C@@H](C)[C@]2(O)C=O)O[C@@H](CO)[C@H](O)[C@H]1O",
    "MIC": "4 µg/mL"
  },
  {
    "Compound": "O=C1C(Cl)C(c2ccccc2Br)N1/N=C/CCn1nnc2ccccc21 (stereo unspecified)",
    "MIC": "> 3.12 µg/mL"
  },
  {
    "Compound": "COc1ccc(C2C(Cl)C(=O)N2/N=C/CCn2nnc3ccccc32)cc1 (stereo unspecified)",
    "MIC": "> 12.5 µg/mL"
  },
  {
    "Compound": "COc1ccccc1C1C(Cl)C(=O)N1/N=C/CCn1nnc2ccccc21 (stereo unspecified)",
    "MIC": "> 6.25 µg/mL"
  }
]

Values compiled from ChEMBL document CHEMBL1641575.
